# key: entry, value: EC50
- targetOfAssay: human β2-adrenergic receptor (Homo sapiens, UniProt P07550)
- Sequence (P07550 whole entry): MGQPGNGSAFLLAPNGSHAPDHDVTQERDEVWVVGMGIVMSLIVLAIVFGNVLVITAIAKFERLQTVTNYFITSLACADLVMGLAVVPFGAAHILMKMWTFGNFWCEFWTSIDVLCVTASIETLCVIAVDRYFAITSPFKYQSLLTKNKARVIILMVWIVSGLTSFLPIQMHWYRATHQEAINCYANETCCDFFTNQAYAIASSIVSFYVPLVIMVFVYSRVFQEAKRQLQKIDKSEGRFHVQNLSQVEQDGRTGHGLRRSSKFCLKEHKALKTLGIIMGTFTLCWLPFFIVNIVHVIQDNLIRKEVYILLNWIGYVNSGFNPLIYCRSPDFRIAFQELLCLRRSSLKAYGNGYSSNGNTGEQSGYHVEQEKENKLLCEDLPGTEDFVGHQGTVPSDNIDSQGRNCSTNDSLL
- procedureText: cAMP accumulation (SPA) in CHO cells transfected with human β2 adrenergic receptor
- measurementConditions: CHO cells transfected with human β2-AR; cAMP; 15 min incubation; 10^−8 to 10^−4 M; read-out: beta-2 EC50
- Procedure: The ability of compounds of this invention to treat or inhibit disorders related to insulin resistance or hyperglycemia was established with representative compounds of this invention in the following standard pharmacological test procedures, which measured the binding selectivity to the β1, β2, and β3 adrenergic receptors. Binding to the receptors was measured in Chinese Hamster ovary (CHO) cells that were transfected with adrenergic receptors. […]
Counter-ions that a name gives are not always drawn.
Give a bare numeral; the unit nM is implied.

What value of EC50 has been reported for the following molecule? CCCCN(CC(=O)OCC)S(=O)(=O)c1ccc(N2CCC(NC[C@H](O)c3ccc(O)c(NS(C)(=O)=O)c3)CC2)cc1
1670

Give its EC50 value. Item: CC(C)CNS(=O)(=O)c1ccc(N2CCC(NC[C@H](O)c3ccc(O)c(NS(C)(=O)=O)c3)CC2)cc1
540

Give the measured EC50 of CCOC(=O)CN(CC1CC1)S(=O)(=O)c1ccc(N2CCC(NC[C@H](O)c3ccc(O)c(NS(C)(=O)=O)c3)CC2)cc1 .
6600

So what's the measured EC50 for this one? CC(C)(C)OC(=O)CN(CC(=O)OC(C)(C)C)S(=O)(=O)c1ccc(N2CCC(NC[C@H](O)c3ccc(O)c(NS(C)(=O)=O)c3)CC2)cc1
12000

Look up EC50 for this molecule: CS(=O)(=O)Nc1cc([C@@H](O)CNC2CCN(c3ccc(S(=O)(=O)N4CCN(CC(=O)O)CC4)cc3)CC2)ccc1O [Example 65, Sodium Salt]
16000

Fill in the blank: the reported EC50 of CCOC(=O)CN(C(C)C)S(=O)(=O)c1ccc(N2CCC(NC[C@H](O)c3ccc(O)c(NS(C)(=O)=O)c3)CC2)cc1 is ____.
2000

Using the record for CC#CCC(CC#CC)(C(=O)O)S(=O)(=O)c1ccc(N2CCC(NC[C@H](O)c3ccc(O)c(NS(C)(=O)=O)c3)CC2)cc1 , report its EC50.
10000

So what's the measured EC50 for this one? CCOC(=O)[C@H]1CCCN1S(=O)(=O)c1ccc(N2CCC(NC[C@H](O)c3ccc(O)c(NS(C)(=O)=O)c3)CC2)cc1
3600

###

- targetOfAssay: UniProtKB P08588
- Sequence (P08588 whole entry): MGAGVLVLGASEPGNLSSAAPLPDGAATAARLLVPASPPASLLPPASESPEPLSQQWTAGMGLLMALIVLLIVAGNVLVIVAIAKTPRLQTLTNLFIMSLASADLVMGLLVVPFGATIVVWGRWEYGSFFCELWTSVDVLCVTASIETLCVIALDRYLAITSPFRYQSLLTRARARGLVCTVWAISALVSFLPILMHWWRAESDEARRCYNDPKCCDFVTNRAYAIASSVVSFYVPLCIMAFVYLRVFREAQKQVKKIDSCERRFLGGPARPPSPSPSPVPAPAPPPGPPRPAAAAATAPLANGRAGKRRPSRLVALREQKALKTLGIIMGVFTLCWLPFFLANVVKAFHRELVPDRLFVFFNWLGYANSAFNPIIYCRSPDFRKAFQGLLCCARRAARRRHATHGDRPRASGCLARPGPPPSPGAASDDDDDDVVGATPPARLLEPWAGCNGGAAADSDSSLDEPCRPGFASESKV
- procedureText: cAMP accumulation (SPA) in CHO cells transfected with human β1 adrenergic receptor
- measurementConditions: CHO cells transfected with human β1-AR; cAMP; 15 min incubation; 10^−8 to 10^−4 M; read-out: beta-1 EC50
quantity: pEC50
Lab note: report pEC50 as minus log10 of the concentration in molar units, number only.

CS(=O)(=O)Nc1cc([C@@H](O)CNC2CCN(c3ccc(S(=O)(=O)N4CCCCC4)cc3)CC2)ccc1O [Example 42] = 5.88
CS(=O)(=O)Nc1cc([C@@H](O)CNC2CCN(c3ccc(S(=O)(=O)N4CCC[C@@H]4C(=O)OCc4ccccc4)cc3)CC2)ccc1O [Example 21] = 7.22
CS(=O)(=O)Nc1cc([C@@H](O)CNC2CCN(c3ccc(S(=O)(=O)NCCO)cc3)CC2)ccc1O [Example 24] = 6.00
CCCCN(Cc1ccccc1)S(=O)(=O)c1ccc(N2CCC(NCC(O)c3ccc(O)c(NS(C)(=O)=O)c3)CC2)cc1 (stereo not shown) [Example 3] = 5.68
CCOC(=O)CN(Cc1cc(F)ccc1F)S(=O)(=O)c1ccc(N2CCC(NC[C@H](O)c3ccc(O)c(NS(C)(=O)=O)c3)CC2)cc1 [Example 61] = 5.72

May I ask what pEC50 has been recorded for CCCCNC(=O)NS(=O)(=O)c1ccc(N2CCC(NC[C@H](O)c3ccc(O)c(NS(C)(=O)=O)c3)CC2)cc1 [Example 62] ?
5.30

Which value of pEC50 has been reported for CCOC(=O)[C@H](CC(C)C)NS(=O)(=O)c1ccc(N2CCC(NC[C@H](O)c3ccc(O)c(NS(C)(=O)=O)c3)CC2)cc1 [Example 37] in the records?
5.25

Which pEC50 reading was recorded for the molecule CCCCNS(=O)(=O)c1ccc(N2CCC(NC[C@H](O)c3ccc(O)c(NS(C)(=O)=O)c3)CC2)cc1 [Example 14] ?
6.19

Please give the measured pEC50 for this molecule: CCCCN(CC(=O)OCc1ccccc1)S(=O)(=O)c1ccc(N2CCC(NC[C@H](O)c3ccc(O)c(NS(C)(=O)=O)c3)CC2)cc1 [Example 19]
6.10

###

# log10 EC50 per entry
- targetOfAssay: human β3 adrenergic receptor (Homo sapiens, UniProt P13945)
- Construct: Full length β3 AR clones (402 amino acids) containing the last 6 amino acids of hβ3— AR are prepared
- Sequence (P13945 whole entry): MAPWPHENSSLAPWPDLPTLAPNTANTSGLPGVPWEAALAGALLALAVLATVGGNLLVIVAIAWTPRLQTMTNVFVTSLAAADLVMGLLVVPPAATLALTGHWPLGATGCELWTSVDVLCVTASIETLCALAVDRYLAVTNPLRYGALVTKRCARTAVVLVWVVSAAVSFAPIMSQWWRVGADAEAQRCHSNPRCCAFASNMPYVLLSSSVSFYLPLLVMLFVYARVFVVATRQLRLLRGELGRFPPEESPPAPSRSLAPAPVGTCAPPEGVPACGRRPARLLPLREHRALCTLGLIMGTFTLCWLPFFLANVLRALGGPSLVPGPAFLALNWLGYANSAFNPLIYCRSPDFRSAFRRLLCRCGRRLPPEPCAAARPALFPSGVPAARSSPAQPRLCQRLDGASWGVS
- procedureText: cAMP accumulation (SPA) in CHO cells transfected with human β3 adrenergic receptor
- measurementConditions: CHO cells expressing human β3-AR; cAMP; 30 min incubation; 10^−9 M to 10^−5 M; read-out: beta-3 EC50
Could you please treat all values as log10 of EC50 in nM?

Take a look at these entries with their results.
CCCCNS(=O)(=O)c1ccc(N2CCC(NC[C@H](O)COc3cccc4[nH]c5ccccc5c34)CC2)cc1 = 1.70
CCOC(=O)CNS(=O)(=O)c1ccc(N2CCC(NC[C@H](O)c3ccc(O)c(NS(C)(=O)=O)c3)CC2)cc1 = 1.15
CCCCN(Cc1ccccc1)S(=O)(=O)c1ccc(N2CCC(NCC(O)c3ccc(O)c(NS(C)(=O)=O)c3)CC2)cc1 (stereo not shown) = 1.18
CS(=O)(=O)Nc1cc([C@@H](O)CNC2CCN(c3ccc(S(=O)(=O)N4CCCC4)cc3)CC2)ccc1O = 0.30
COc1ccc(N(Cc2ccccc2)S(=O)(=O)c2ccc(N3CCC(NCC(O)COc4cccc5[nH]c(=O)[nH]c45)CC3)cc2)cc1OC (stereo not shown) = 1.23

Name the reported log10 EC50 value associated with the molecule CN1CCN(S(=O)(=O)c2ccc(N3CCC(NC[C@H](O)c4ccc(O)c(NS(C)(=O)=O)c4)CC3)cc2)CC1
1.40

# query: log10 EC50 of entry CCOC(=O)CN(CC(C)C)S(=O)(=O)c1ccc(N2CCC(NC[C@H](O)c3ccc(O)c(NS(C)(=O)=O)c3)CC2)cc1
0.60

###

- targetOfAssay: human β3 adrenergic receptor (Homo sapiens, UniProt P13945)
- Construct: Full length β3 AR clones (402 amino acids) containing the last 6 amino acids of hβ3— AR are prepared; expressed in transfected cells; host or cells: CHO cells
- procedureText: cAMP accumulation (SPA) in CHO cells transfected with human β3 adrenergic receptor
- Assay type: cell-based
- measurementConditions: IA = % activity compound / % activity isoproterenol at 10^−5 M; CHO human β3 cells
quantity: beta-3 (IA) maximal response relative to isoproterenol

CS(=O)(=O)Nc1cc([C@@H](O)CNC2CCN(c3ccc(S(=O)(=O)N4CCC[C@H]4C(=O)OCc4ccccc4)cc3)CC2)ccc1O [Example 22] = (1)
CS(=O)(=O)Nc1cc([C@@H](O)CNC2CCN(c3ccc(S(=O)(=O)N4CCC[C@@H]4C(=O)OCc4ccccc4)cc3)CC2)ccc1O [Example 21] = (1)

###

Here the recorded EC50 is given for each entry.
- targetOfAssay: UniProt:P08588
- procedureText: cAMP accumulation (SPA) in CHO cells transfected with human β1 adrenergic receptor
- measurementConditions: CHO cells transfected with human β1-AR; cAMP; 15 min incubation; 10^−8 to 10^−4 M; read-out: beta-1 EC50
Write the answer as a number in nM, unit excluded.

The following compounds have reported results that may help.
CC#CCC(CC#CC)(C(=O)OC(C)(C)C)S(=O)(=O)c1ccc(N2CCC(NC[C@H](O)c3ccc(O)c(NS(C)(=O)=O)c3)CC2)cc1 = 1000
CS(=O)(=O)Nc1cc([C@@H](O)CNC2CCN(c3ccc(S(=O)(=O)N4CCC[C@H]4C(=O)O)cc3)CC2)ccc1O = 10000
CC#CCC(CC#CC)(C(=O)O)S(=O)(=O)c1ccc(N2CCC(NC[C@H](O)c3ccc(O)c(NS(C)(=O)=O)c3)CC2)cc1 = 10000
CS(=O)(=O)Nc1cc([C@@H](O)CNC2CCN(c3ccc(S(=O)(=O)N4CCCC4)cc3)CC2)ccc1O = 800
CC(C)(C)OC(=O)CN(CC(=O)OC(C)(C)C)S(=O)(=O)c1ccc(N2CCC(NC[C@H](O)c3ccc(O)c(NS(C)(=O)=O)c3)CC2)cc1 = 2300

Name the reported EC50 value associated with the compound COC(=O)N(CC(=O)OC(C)(C)C)S(=O)(=O)c1ccc(N2CCC(NC[C@H](O)c3ccc(O)c(NS(C)(=O)=O)c3)CC2)cc1
7800

Quick check: EC50 of CCOC(=O)CN(C(C)C)S(=O)(=O)c1ccc(N2CCC(NC[C@H](O)c3ccc(O)c(NS(C)(=O)=O)c3)CC2)cc1 ?
12000

Looking for the measured EC50 of CC(C)(C)OC(=O)CNS(=O)(=O)c1ccc(N2CCC(NC[C@H](O)c3ccc(O)c(NS(C)(=O)=O)c3)CC2)cc1 , can you help?
960

What does the data say about its EC50? Entry: CCOC(=O)[C@H]1CCCN1S(=O)(=O)c1ccc(N2CCC(NC[C@H](O)c3ccc(O)c(NS(C)(=O)=O)c3)CC2)cc1
9800

Could you share which EC50 value was measured for CCCCN(CC(=O)OCC)S(=O)(=O)c1ccc(N2CCC(NC[C@H](O)c3ccc(O)c(NS(C)(=O)=O)c3)CC2)cc1 ?
1320

What does the data say about its EC50? Entry: CC(C)CNS(=O)(=O)c1ccc(N2CCC(NC[C@H](O)c3ccc(O)c(NS(C)(=O)=O)c3)CC2)cc1
420
